assay_details: In vivo biodistribution in mice
Set-up: species or system normal CD-1 male mice
run_parameters: iv, 120 min post injection
For each entry below, report its Biodistribution: Brain value.
One number for each entry, in % dose/g.

Some solved cases for reference:
compound	measured_metric	unit_spec	observed_value
O=C([O-])CN(CCN(CC(=O)[O-])Cc1cc(CCC(=O)N[C@@H](CC(=O)O)C(=O)O)ccc1[O-])Cc1cc(CCC(=O)NC(P(=O)(O)O)P(=O)(O)O)ccc1[O-].[68Ga+3] [[^68Ga]1e]	Biodistribution: Brain	% dose/g	0.01
O=C([O-])CN(CCN(CC(=O)[O-])Cc1cc(CCC(=O)NC(P(=O)(O)O)P(=O)(O)O)ccc1[O-])Cc1cc(CCC(=O)NCCNC(=O)CN2CCN(CC(=O)O)CCN(CC(=O)O)CCN(CC(=O)O)CC2)ccc1[O-].[68Ga+3] [[^68Ga]1h]	Biodistribution: Brain	% dose/g	0.01

Prompt: Recorded Biodistribution: Brain for O=C([O-])CN(CCN(CC(=O)[O-])Cc1cc(CCC(=O)NC(P(=O)(O)O)P(=O)(O)O)ccc1[O-])Cc1cc(CCC(=O)NC2C(O)OC(CO)C(O)C2O)ccc1[O-].[68Ga+3] (stereo not drawn) [[^68Ga]1b] , please?
Completion: 0.02

###

For each entry below, report its Biodistribution: Kidney value.
assay_details: In vivo biodistribution in mice
Parameters: species or system normal CD-1 male mice
run_parameters: iv, 30 min (0.5 hr) post injection
Give bare numbers, in % dose/g.

molecule	measured_metric	observed_value
O=C([O-])CN(CCN(CC(=O)[O-])Cc1cc(CCC(=O)O)ccc1[O-])Cc1cc(CCC(=O)O)ccc1[O-].[68Ga+3] [[^68Ga]HBED-CC, reference compound]	Biodistribution: Kidney	3.22

Quick request: Biodistribution: Kidney for each listed item, please.
1. O=C([O-])CN(CCN(CC(=O)[O-])Cc1cc(CCC(=O)NC(P(=O)(O)O)P(=O)(O)O)ccc1[O-])Cc1cc(CCC(=O)NCCNC(=O)CN2CCN(CC(=O)O)CCN(CC(=O)O)CCN(CC(=O)O)CC2)ccc1[O-].[68Ga+3] [[^68Ga]1h]
2. O=C([O-])CN(CCN(CC(=O)[O-])Cc1cc(CCC(=O)N[C@@H](CC(=O)O)C(=O)O)ccc1[O-])Cc1cc(CCC(=O)NC(P(=O)(O)O)P(=O)(O)O)ccc1[O-].[68Ga+3] [[^68Ga]1e]

Completion:
2.07
2.26

###

assay_details: In vivo biodistribution in mice
Parameters: species or system normal CD-1 male mice
run_parameters: iv, 60 min (1 hr) post injection
For each entry below, report its Biodistribution: Heart value.
Give bare numbers, in % dose/g.

Some solved cases for reference:
compound	measured_metric	observed_value
[18F-].[Na+] [[^18F]NaF, reference compound]	Biodistribution: Heart	0.18
O=C([O-])CN(CCN(CC(=O)[O-])Cc1cc(CCC(=O)NC(P(=O)(O)O)P(=O)(O)O)ccc1[O-])Cc1cc(CCC(=O)NCCCCCC(=O)NCCCC[C@H](NC(=O)N[C@@H](CCC(=O)O)C(=O)O)C(=O)O)ccc1[O-].[68Ga+3] [[^68Ga]1g]	Biodistribution: Heart	0.32
C[C@H](NC(=O)CCc1ccc([O-])c(CN(CCN(CC(=O)[O-])Cc2cc(CCC(=O)NC(P(=O)(O)O)P(=O)(O)O)ccc2[O-])CC(=O)[O-])c1)C(=O)O.[68Ga+3] [[^68Ga]1d]	Biodistribution: Heart	0.08
O=C([O-])CN(CCN(CC(=O)[O-])Cc1cc(CCC(=O)NC(P(=O)(O)O)P(=O)(O)O)ccc1[O-])Cc1cc(CCC(=O)NCCNC(=O)CN2CCN(CC(=O)O)CCN(CC(=O)O)CCN(CC(=O)O)CC2)ccc1[O-].[68Ga+3] [[^68Ga]1h]	Biodistribution: Heart	0.08

Proceeding to the next compound to report its Biodistribution: Heart.
Prompt: Recorded Biodistribution: Heart for O=C([O-])CN(CCN(CC(=O)[O-])Cc1cc(CCC(=O)NC(P(=O)(O)O)P(=O)(O)O)ccc1[O-])Cc1cc(CCC(=O)NC(P(=O)(O)O)P(=O)(O)O)ccc1[O-].[68Ga+3] [[^68Ga]2] , please?
Completion: 0.57

###

assay_details: In vivo biodistribution in mice
Parameters: species or system normal CD-1 male mice
run_parameters: iv, 120 min
Threshold rule: bone to blood ratio greater than or equal to 300 is 1.0; below that, 0.0.

// known answers, use as guide
compound	assigned_category
O=C([O-])CN(CCN(CC(=O)[O-])Cc1cc(CCC(=O)NC(P(=O)(O)O)P(=O)(O)O)ccc1[O-])Cc1cc(CCC(=O)O)ccc1[O-].[68Ga+3] [[^68Ga]1a]	1.0
O=C([O-])CN(CCN(CC(=O)[O-])Cc1cc(CCC(=O)N[C@@H](CC(=O)O)C(=O)O)ccc1[O-])Cc1cc(CCC(=O)NC(P(=O)(O)O)P(=O)(O)O)ccc1[O-].[68Ga+3] [[^68Ga]1e]	0.0
O=C([O-])CN(CCN(CC(=O)[O-])Cc1cc(CCC(=O)NC(P(=O)(O)O)P(=O)(O)O)ccc1[O-])Cc1cc(CCC(=O)NCC(=O)O)ccc1[O-].[68Ga+3] [[^68Ga]1c]	0.0
O=C([O-])CN(CCN(CC(=O)[O-])Cc1cc(CCC(=O)NC(P(=O)(O)O)P(=O)(O)O)ccc1[O-])Cc1cc(CCC(=O)NC2C(O)OC(CO)C(O)C2O)ccc1[O-].[68Ga+3] (centres unmarked) [[^68Ga]1b]	0.0

// switching to the query compound
Prompt: Hello, I need to know if C[C@H](NC(=O)CCc1ccc([O-])c(CN(CCN(CC(=O)[O-])Cc2cc(CCC(=O)NC(P(=O)(O)O)P(=O)(O)O)ccc2[O-])CC(=O)[O-])c1)C(=O)O.[68Ga+3] [[^68Ga]1d] has measured bone to blood ratio not below 300. Thanks!
Completion: 0.0

###

For each entry below, report its Biodistribution: Brain value.
assay_details: In vivo biodistribution in mice
Design: species or system normal CD-1 male mice
run_parameters: iv, 60 min (1 hr) post injection
Procedure: Biodistribution experiments were performed by intravenously administering ^68Ga labeled 1a-h, 2, 3, BPAMD, and [^18F]NaF into normal, healthy male CD-1 mice (25-30 g). The injection activity was 20-30 μCi/animal. […] Organs of interest were harvested, weighed, and counts of radioactivity were measured by a gamma counter. The biodistribution of each sample was calculated as a percentage of the injected dose per gram of wet tissue weight (% ID/g). […]
Answers are plain numbers, in % dose/g.

compound	unit_spec	observed_value
O=C([O-])CN(CCN(CC(=O)[O-])Cc1cc(CCC(=O)NC(P(=O)(O)O)P(=O)(O)O)ccc1[O-])Cc1cc(CCC(=O)NCCNC(=O)CN2CCN(CC(=O)O)CCN(CC(=O)O)CCN(CC(=O)O)CC2)ccc1[O-].[68Ga+3] [[^68Ga]1h]	% dose/g	0.01
O=C([O-])CN(CCN(CC(=O)[O-])Cc1cc(CCC(=O)NC(P(=O)(O)O)P(=O)(O)O)ccc1[O-])Cc1cc(CCC(=O)O)ccc1[O-].[68Ga+3] [[^68Ga]1a]	% dose/g	0.02
O=C(O)CN1CCN(CC(=O)O)CCN(CC(=O)NC(P(=O)(O)O)P(=O)(O)O)CCN(CC(=O)O)CC1.[68Ga] [[^68Ga]BPAMD, reference compound]	% dose/g	0.04

Proceeding to the next compound to report its Biodistribution: Brain.
Prompt: Recorded Biodistribution: Brain for C[C@H](NC(=O)CCc1ccc([O-])c(CN(CCN(CC(=O)[O-])Cc2cc(CCC(=O)NC(P(=O)(O)O)P(=O)(O)O)ccc2[O-])CC(=O)[O-])c1)C(=O)O.[68Ga+3] [[^68Ga]1d] , please?
Completion: 0.01

###

assay_details: In vivo biodistribution in mice
Set-up: species or system normal CD-1 male mice
run_parameters: iv, 60 min (1 hr) post injection
measured_metric: Biodistribution: Blood (% dose/g)
Answers are plain numbers, in % dose/g.

Some solved cases for reference:
compound	observed_value
O=C([O-])CN(CCN(CC(=O)[O-])Cc1cc(CCC(=O)NC(P(=O)(O)O)P(=O)(O)O)ccc1[O-])Cc1cc(CCC(=O)O)ccc1[O-].[68Ga+3] [[^68Ga]1a]	0.20
O=C(O)CN1CCN(CC(=O)O)CCN(CC(=O)NC(P(=O)(O)O)P(=O)(O)O)CCN(CC(=O)O)CC1.[68Ga] [[^68Ga]BPAMD, reference compound]	0.93
O=C([O-])CN(CCN(CC(=O)[O-])Cc1cc(CCC(=O)NC(P(=O)(O)O)P(=O)(O)O)ccc1[O-])Cc1cc(CCC(=O)NCCCCCC(=O)NCCCC[C@H](NC(=O)N[C@@H](CCC(=O)O)C(=O)O)C(=O)O)ccc1[O-].[68Ga+3] [[^68Ga]1g]	0.28
O=C([O-])CN(CCN(CC(=O)[O-])Cc1cc(CCC(=O)N[C@@H](CCC(=O)O)C(=O)O)ccc1[O-])Cc1cc(CCC(=O)NC(P(=O)(O)O)P(=O)(O)O)ccc1[O-].[68Ga+3] [[^68Ga]1f]	0.18
C[C@H](NC(=O)CCc1ccc([O-])c(CN(CCN(CC(=O)[O-])Cc2cc(CCC(=O)NC(P(=O)(O)O)P(=O)(O)O)ccc2[O-])CC(=O)[O-])c1)C(=O)O.[68Ga+3] [[^68Ga]1d]	0.10
O=C([O-])CN1CCN(CC(=O)[O-])CCN(CC(=O)NCCNC(=O)CCc2ccc(O)c(CN(CCN(CC(=O)O)Cc3cc(CCC(=O)NC(P(=O)(O)O)P(=O)(O)O)ccc3O)CC(=O)O)c2)CCN(CC(=O)[O-])CC1.[177Lu+3] [[^177Lu]1h]	0.12

Proceeding to the next compound to report its Biodistribution: Blood.
Prompt: Recorded Biodistribution: Blood for O=C([O-])CN(CCN(CC(=O)[O-])Cc1cc(CCC(=O)NC(P(=O)(O)O)P(=O)(O)O)ccc1[O-])Cc1cc(CCC(=O)NCCCNC(=O)CCc2ccc(O)c(CN(CCN(CC(=O)O)Cc3cc(CCC(=O)NC(P(=O)(O)O)P(=O)(O)O)ccc3O)CC(=O)O)c2)ccc1[O-].[68Ga+3] [[^68Ga]3] , please?
Completion: 0.70

Origin of the recorded values: patent US10253052B2
